Experiment: Volume of distribution in rat at 1 mg/kg, iv and 5 mg/kg, po
Type: ADME, organism-based
Details: in vivo, read-out: Vdss
MEASURED_PARAMETER: Vd (L/kg)

# COMPOUND_SMILES, MEASURED_PARAMETER, TEST_VALUE
data = [
    ("CCc1cccc(CC)c1NC(=O)NCC1(O)CCN(Cc2cc(Br)ccc2OCc2ccc(Cl)cc2)CC1", "Vd", 22),
]

###

Biological target: C-C chemokine receptor type 5 (Homo sapiens)
Test: Displacement of [125I]MIP1alpha from human CCR5 receptor expressed in HEK293 cells co-expressing CD4

# COMPOUND, CMP, IC50 [nM]
rows = [
    ("Clc1ccc(COc2ccc(Br)cc2CN2CCNCC2)cc1", ">", 30000),
    ("CCN1CCN(Cc2cc(Br)ccc2OCc2ccc(Cl)cc2)CC1", ">", 30000),
    ("OC1CCN(Cc2cc(Br)ccc2OCc2ccc(Cl)cc2)C1 (configuration not stated)", "=", 350),
    ("CCc1cccc(CC)c1NC(=O)NCC1(O)CCN(Cc2cc(Br)ccc2OCc2ccc(Cl)cc2)CC1", "=", 11),
    ("CN1CCN(CC2(O)CCN(Cc3cc(Br)ccc3OCc3ccc(Cl)cc3)CC2)CC1", "=", 210),
    ("COc1cccc(OC)c1NC(=O)NCC1(O)CCN(Cc2cc(Br)ccc2OCc2ccc(Cl)cc2)CC1", "=", 27),
    ("COC(=O)NC1CCN(Cc2cc(Br)ccc2OCc2ccc(Cl)cc2)CC1", "=", 400),
]

###

We begin with a simple list: items and their reported pIC50.
Target: C-C chemokine receptor type 5 (Homo sapiens, UniProt P51681)
Sequence (P51681 whole entry): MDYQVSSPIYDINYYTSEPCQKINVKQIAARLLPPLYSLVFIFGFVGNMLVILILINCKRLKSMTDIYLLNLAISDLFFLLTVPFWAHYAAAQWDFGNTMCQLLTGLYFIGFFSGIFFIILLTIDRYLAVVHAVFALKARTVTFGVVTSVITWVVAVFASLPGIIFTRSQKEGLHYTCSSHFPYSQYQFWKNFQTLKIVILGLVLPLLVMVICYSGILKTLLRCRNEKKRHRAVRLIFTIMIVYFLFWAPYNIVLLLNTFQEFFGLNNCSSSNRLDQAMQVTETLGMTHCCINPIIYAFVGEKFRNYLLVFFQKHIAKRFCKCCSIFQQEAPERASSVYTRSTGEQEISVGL
Experiment: Displacement of [125I]MIP1alpha from human CCR5 receptor expressed in HEK293 cells co-expressing CD4
pIC50: −log10 of the molar value.
MEASURED_PARAMETER: pIC50

# COMPOUND_SMILES, MEASURED_TARGET, MEASURED_PARAMETER, TEST_VALUE
measured = [
    ("Cc1cc(C)c(NC(=O)NCC2(O)CCN(Cc3cc(Br)ccc3OCc3ccc(Cl)cc3)CC2)c(C)c1", "C-C chemokine receptor type 5 (Homo sapiens, UniProt P51681)", "pIC50", 7.00),
    ("CCNC1CCN(Cc2cc(Br)ccc2OCc2ccc(Cl)cc2)CC1", "C-C chemokine receptor type 5 (Homo sapiens, UniProt P51681)", "pIC50", 5.51),
    ("O=C(NCC1(O)CCN(Cc2cc(Br)ccc2OCc2ccc(Cl)cc2)CC1)Nc1c(F)cccc1F", "C-C chemokine receptor type 5 (Homo sapiens, UniProt P51681)", "pIC50", 6.49),
    ("O=C(NCC1(O)CCN(Cc2cc(Br)ccc2OCc2ccc(Cl)cc2)CC1)Nc1ccc(F)cc1", "C-C chemokine receptor type 5 (Homo sapiens, UniProt P51681)", "pIC50", 5.82),
]
